- Measured target: T1, Ebola virus GP with a C-terminal polyhistidine tag (Sino Biologicals, Catalog #40442-V08B1) (Ebola virus, UniProt P87666 33-650)
- T1 construct: also called EbolaGP.his; Ebola virus GP.his
- Method notes: SPR 25C, mAb captured

Binder	koff
H1H17214P (antibody, V domains shown) VH: EVQLVESGGGLVQPGGSLRLSCAASKFTFDTFAMSWVRQAPGKGLEWVSFISSSGGRTDYVDSVKGRFTISRDNSKNTLYLQMNSLRAEDTAVYYCAKERTIFGVLILGPDNYGMDVWGQGTTVTVSS VL: DIQMTQSPSSLSAFVGDRVTITCRASQSISTYLNWYQQKPGKAPKLLIYAASSLQSGVSSRFSGSGSGTDFTLTISSLQPEDFATYYCQQSYSAPPITFGQGTRLEIK	≤ 1e-05 s⁻¹
H1H17193P (antibody, V domains shown) VH: QVQLVESGGGVVQPGRSLRLSCAASGFTFSSYGIHWVRQAPGKWLEWVAFIWFDGSNKYYADSVKGRFTISRDDSKNTLYLQMNSLRAEDTAVYYCARDGEIFGVLISSDAFDIWGQGTMVTVSS VL: DIQMTQSPSSLSASVGDRVTITCRASRGIRNDLGWFQQKPGKAPKRLIYVASNLQSGVPSRFSGSGSGTEFTLTISSLQPEDFATYYCLQHNSYPITFGQGTRLEIK	0.000108 s⁻¹

The origin of these recorded values is patent US20160215040A1.
